Hey, just so you know, these numbers are from patent US20250304650A1.

molecular target: feline FcRn (FCN-F82W3, Acrobiosystems) (feline); assay: SPR Carterra, IgG coupled, pH 6.0
Label scheme for kon: lower than 500000 M⁻¹ s⁻¹ is Criterion not met, 500000 M⁻¹ s⁻¹ and above is Criterion met.

*Q* Assess whether reported kon for anti-NGF feline IgG1a, Fc variant E293H (antibody, part only; not given: anti-NGF variable domains, light chain, not shown: another chain or arm of the molecule; small tags and cut ends) Fc: PPEMLGGPSIFIFPPKPKDTLSISRTPEVTCLVVDLGPDDSDVQITWFVDNTQVYTAKTSPRHEQFNSTYRVVSVLPILHQDWLKGKEFKCKVNSKSLPSPIERTISKAKGQPHEPQVYVLPPAQEELSRNKVSVTCLIKSFHPPDIAVEWEITGQPEPENNYRTTPPQLDSDGTYFVYSKLSVDRSHWQRGNTYTCSVSHEALHSHHTQKSLTQSPGK sits at 500000 M⁻¹ s⁻¹ or higher.
*A* Criterion not met

*Q* Assess whether reported kon for anti-NGF feline IgG1a, Fc variant E380T (antibody, part only; not given: anti-NGF variable domains, not shown: another chain or arm of the molecule; small tags and cut ends) Fc: PPEMLGGPSIFIFPPKPKDTLSISRTPEVTCLVVDLGPDDSDVQITWFVDNTQVYTAKTSPREEQFNSTYRVVSVLPILHQDWLKGKEFKCKVNSKSLPSPIERTISKAKGQPHEPQVYVLPPAQEELSRNKVSVTCLIKSFHPPDIAVTWEITGQPEPENNYRTTPPQLDSDGTYFVYSKLSVDRSHWQRGNTYTCSVSHEALHSHHTQKSLTQSPGK sits at 500000 M⁻¹ s⁻¹ or higher.
*A* Criterion met

*Q* Assess whether reported kon for anti-NGF feline IgG1a, Fc variant S434Y, L309V (antibody, part only; not given: anti-NGF variable domains, light chain, not shown: another chain or arm of the molecule; small tags and cut ends) Fc: PPEMLGGPSIFIFPPKPKDTLSISRTPEVTCLVVDLGPDDSDVQITWFVDNTQVYTAKTSPREEQFNSTYRVVSVLPIVHQDWLKGKEFKCKVNSKSLPSPIERTISKAKGQPHEPQVYVLPPAQEELSRNKVSVTCLIKSFHPPDIAVEWEITGQPEPENNYRTTPPQLDSDGTYFVYSKLSVDRSHWQRGNTYTCSVSHEALHYHHTQKSLTQSPGK sits at 500000 M⁻¹ s⁻¹ or higher.
*A* Criterion met

*Q* Assess whether reported kon for anti-NGF feline IgG1a, Fc variant S434Y, T286D (antibody, part only; not given: anti-NGF variable domains, not shown: another chain or arm of the molecule; small tags and cut ends) Fc: PPEMLGGPSIFIFPPKPKDTLSISRTPEVTCLVVDLGPDDSDVQITWFVDNTQVYDAKTSPREEQFNSTYRVVSVLPILHQDWLKGKEFKCKVNSKSLPSPIERTISKAKGQPHEPQVYVLPPAQEELSRNKVSVTCLIKSFHPPDIAVEWEITGQPEPENNYRTTPPQLDSDGTYFVYSKLSVDRSHWQRGNTYTCSVSHEALHYHHTQKSLTQSPGK sits at 500000 M⁻¹ s⁻¹ or higher.
*A* Criterion met

*Q* Assess whether reported kon for anti-NGF feline IgG1a, Fc variant S428H, T289H (antibody, part only; not given: anti-NGF variable domains, light chain, not shown: another chain or arm of the molecule; small tags and cut ends) Fc: PPEMLGGPSIFIFPPKPKDTLSISRTPEVTCLVVDLGPDDSDVQITWFVDNTQVYTAKHSPREEQFNSTYRVVSVLPILHQDWLKGKEFKCKVNSKSLPSPIERTISKAKGQPHEPQVYVLPPAQEELSRNKVSVTCLIKSFHPPDIAVEWEITGQPEPENNYRTTPPQLDSDGTYFVYSKLSVDRSHWQRGNTYTCSVHHEALHSHHTQKSLTQSPGK sits at 500000 M⁻¹ s⁻¹ or higher.
*A* Criterion not met
